- TARGET_UNDER_TEST: mutant G2019S LRRK2 (Homo sapiens, UniProt Q5S007, G2019S)
- Sequence (Q5S007 970-2527 G2019S limits assumed): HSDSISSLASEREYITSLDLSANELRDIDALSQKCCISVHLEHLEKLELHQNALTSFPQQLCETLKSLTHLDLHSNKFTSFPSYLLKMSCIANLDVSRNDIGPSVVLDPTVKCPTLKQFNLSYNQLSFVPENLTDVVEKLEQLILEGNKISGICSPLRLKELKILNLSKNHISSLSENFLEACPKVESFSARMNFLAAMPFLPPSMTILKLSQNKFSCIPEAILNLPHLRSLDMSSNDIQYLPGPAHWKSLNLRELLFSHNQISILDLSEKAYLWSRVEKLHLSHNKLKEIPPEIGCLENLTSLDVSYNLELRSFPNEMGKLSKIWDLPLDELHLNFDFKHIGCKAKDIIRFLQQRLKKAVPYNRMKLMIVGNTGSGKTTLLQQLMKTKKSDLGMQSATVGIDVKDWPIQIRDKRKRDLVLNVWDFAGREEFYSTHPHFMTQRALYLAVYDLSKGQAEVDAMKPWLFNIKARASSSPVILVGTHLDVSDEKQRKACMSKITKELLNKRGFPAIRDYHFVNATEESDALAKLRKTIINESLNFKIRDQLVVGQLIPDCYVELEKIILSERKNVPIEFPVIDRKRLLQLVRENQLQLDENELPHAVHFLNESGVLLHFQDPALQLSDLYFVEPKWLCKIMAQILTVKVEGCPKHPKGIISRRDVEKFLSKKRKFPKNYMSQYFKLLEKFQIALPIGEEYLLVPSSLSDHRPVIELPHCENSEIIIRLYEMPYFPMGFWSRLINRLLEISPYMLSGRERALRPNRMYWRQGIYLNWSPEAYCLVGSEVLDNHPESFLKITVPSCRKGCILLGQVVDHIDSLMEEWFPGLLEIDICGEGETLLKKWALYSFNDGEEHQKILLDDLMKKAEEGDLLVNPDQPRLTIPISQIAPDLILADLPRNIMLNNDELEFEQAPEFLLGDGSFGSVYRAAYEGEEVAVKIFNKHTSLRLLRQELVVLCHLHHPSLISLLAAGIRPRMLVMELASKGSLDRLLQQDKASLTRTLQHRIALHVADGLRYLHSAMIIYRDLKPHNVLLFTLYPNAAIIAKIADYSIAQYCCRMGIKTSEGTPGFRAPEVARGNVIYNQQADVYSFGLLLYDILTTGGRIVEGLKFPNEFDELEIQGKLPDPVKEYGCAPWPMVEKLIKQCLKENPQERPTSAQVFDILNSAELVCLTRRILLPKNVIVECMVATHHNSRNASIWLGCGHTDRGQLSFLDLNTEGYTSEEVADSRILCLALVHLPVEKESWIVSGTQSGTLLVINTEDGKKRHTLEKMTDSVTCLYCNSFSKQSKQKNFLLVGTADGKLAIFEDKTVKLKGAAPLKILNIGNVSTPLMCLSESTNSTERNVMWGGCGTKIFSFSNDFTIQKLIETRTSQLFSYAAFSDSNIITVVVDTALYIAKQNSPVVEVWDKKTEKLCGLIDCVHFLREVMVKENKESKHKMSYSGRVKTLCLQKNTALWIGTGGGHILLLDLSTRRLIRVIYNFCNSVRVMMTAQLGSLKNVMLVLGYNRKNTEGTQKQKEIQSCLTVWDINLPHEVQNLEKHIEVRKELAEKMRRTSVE
- ASSAY_COMMENT: LRRK2 Assay, Format 1 (Lantha Screen), G2019S mutant
Where a name gives a salt, the structure may show the parent alone.
Output MET for records whose IC50 is lower than 0.1 µM, NOT MET for records at or above 0.1 µM.

c1ccc2c(c1)ncc1nc(Cn3cncn3)n(C3CCOCC3)c12 :: NOT MET
COc1ccc2ncc3nc(Cn4cc(C)nn4)n([C@H]4CCO[C@@H](C)C4)c3c2c1 [enantiomer of Example 88] :: NOT MET
C[C@H]1C[C@H](n2c(Cc3ccon3)nc3cnc4ccc(C#N)cc4c32)CCO1 :: MET
C[C@@H]1C[C@H](n2c(Cc3cscn3)nc3cnc4ccc(C#N)cc4c32)C[C@H](C)O1 :: MET
COc1ccc2ncc3nc(Cc4cn5ncsc5n4)n([C@@H]4CCO[C@H](C)C4)c3c2c1 :: MET
Cc1cn(Cc2nc3cnc4ccccc4c3n2[C@@H]2CC[C@H](F)C2)nn1 [Example 27, formate salt] :: NOT MET
c1ccc2c(c1)ncc1nc(Cn3cnnn3)n(C3CCOCC3)c12 :: NOT MET
c1ccc2c(c1)ncc1nc(Cc3cn4ncsc4n3)n(C3CCOCC3)c12 :: MET

We now examine a further compound.
API: query returns whether the compound falls strictly under 0.1 µM in IC50. Query: c1ccc2c(c1)ncc1nc(Cc3noc4ccccc34)n(C3CCOCC3)c12
NOT MET
